# tested on: T1, HIS FLAG tagged human IL-6 (human, UniProt P05231 30-212)
# T1 construct: In house; also called HIS FLAG IL-6; HIS/FLAG IL-6
# T1 sequence (P05231 other isoform, or with tags, fused parts or gaps): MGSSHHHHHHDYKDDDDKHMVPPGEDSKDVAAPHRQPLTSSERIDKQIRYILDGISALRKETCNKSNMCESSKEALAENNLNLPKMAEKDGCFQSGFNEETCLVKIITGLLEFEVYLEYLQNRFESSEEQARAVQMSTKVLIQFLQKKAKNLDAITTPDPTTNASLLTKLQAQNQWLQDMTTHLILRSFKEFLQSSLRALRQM
# experiment notes: HTRF antibody-ligand competition; competitor biotinylated CAN022D10 IgG; protocol modified for IgG (footnote)
endpoint: IC50 (nM)
// return numeric value only (unit: nM, not printed)

Known results for binders:
binder	IC50 / nM
Antibody 4 IgG (antibody, V domains shown, Non-germlined; IgG1 with human heavy chain and kappa constant domains; also called Ab 4) VH: EVQLVQSGGGLIQPGGSLRLSCAASGFTVSSNYMTWVRQAPGKGLEWVSDLYYYAGDTYYADSVKGRFTMSRDISKNTVYLQMNSLRAEDTGVYYCARWADGHYYYADVWGRGTLVSVSS VL: DIVMTQSPSTLSASVGDRVTITCRASQGISSWLAWYQQKPGRAPKVLIYKASTLESGVPSRFSGSGSGTDFTLTISSLQPEDFASYYCQQSYSAPWTFGQGTKLELKR	0.043
Antibody 2 IgG (antibody, V domains shown, Non-germlined; also called Ab 2) VH: EVQLVQSGGGLIQPGGSLRLSCAASGFTISSNYMTWVRQAPGKGLEWVSDLYYYAGDTYYADSVRGRFTMSRDISKNTVYLQMDSLRAEDTGVYYCARWADGHYYYIDVWGGGTLVTVSS VL: DIVMTQSPSTLSASVGDRVTITCRASQGISSWLTWYQQKPGRAPKVLIYKASTLESGVPSRFSGSGSGTDFTLTISSLQPEDFATYYCQQSYSAPWTFGQGTKLELKR	0.036
Antibody 3 IgG (antibody, V domains shown, Non-germlined; IgG1 with human heavy chain and kappa constant domains; also called Ab 3) VH: QVQLVQSGGGLIQPGGSLRLSCAASGFTISSNYMVWVRQAPGKGLEWVSDLYYYAGDTYYADSVKGRFTVSRDISKNTVYLQMNSLRAEDTGVYYCARWADDHYYHIDVWGRGTLVTVSS VL: DIVMTQSPSTLSASVGDRVTITCRASQGISSWLAWYQQKPGRAPKALIYKASTLESGVPSRFSGSGSGTDFTLTISSLQPEDFATYYCQQSYSTPWTFGQGTKLEIKR	0.043

Then this binder:
// Antibody 5 IgG (antibody, V domains shown, Non-germlined; IgG1 with human heavy chain and kappa constant domains; also called Ab 5) VH: EVQLVQSGGGLIQPGGSLRLSCAASGFTISSNYMIWVRQAPGKGLEWVSDLYYYAGDTYYADSVKGRFTMSRDISKNTVYLQMNSLRAEDTGVYYCARWADGHYYYADVWGRGTLVSVSS VL: DIVMTQSPPTLSASVGDRVTITCRASQGISSWLAWYQQKPGRAPKVLIYKASTLESGVPSRFSGSGSGTDFTLTISSLQPEDFASYYCQQSYSAPWTFGQGTKLEIKR : IC50 value = 0.026
